Molecular target: CDK6/cyclin D3 (Homo sapiens) (UniProt P30281+Q00534)
Settings: at 10 µM
Description: Millipore: Percentage of residual kinase activity of CDK6 at 10uM relative to control. Control inhibitor: Phosphoric acid* at 0.3uM. Buffer: 8 mM MOPS pH 7.0, 0.2 mM EDTA
Label yes (1) for high-side residual activity (at or above 80%) and no (0) for low-side residual activity (below it).

Use these answered entries as a reference point.
[[record]]
molecule = "Cn1nc2c3c(cccc31)C(=O)c1ccccc1-2"
category_label = "no (0)"

[[record]]
molecule = "Cc1ccc(NC2=CC(=O)c3sc(C)nc3C2=O)cc1"
category_label = "yes (1)"

[[record]]
molecule = "Cc1cccc(-c2[nH]c(C(C)(C)C)nc2-c2ccc3c(c2)OCO3)n1"
category_label = "yes (1)"

[[record]]
molecule = "C[C@@H](N)[C@H]1CC[C@H](C(=O)Nc2ccncc2)CC1"
category_label = "yes (1)"


Shifting focus to the compound that follows.
query: Record "Ic1cccc(CSc2nnc(-c3ccncc3)o2)c1" ; criterion: residual activity no lower than 80%. Met?
result: no (0)

* * *

Target: Serine/threonine-protein kinase pim-1 (Homo sapiens) (UniProt P11309)
Sequence (P11309 whole entry, looked up): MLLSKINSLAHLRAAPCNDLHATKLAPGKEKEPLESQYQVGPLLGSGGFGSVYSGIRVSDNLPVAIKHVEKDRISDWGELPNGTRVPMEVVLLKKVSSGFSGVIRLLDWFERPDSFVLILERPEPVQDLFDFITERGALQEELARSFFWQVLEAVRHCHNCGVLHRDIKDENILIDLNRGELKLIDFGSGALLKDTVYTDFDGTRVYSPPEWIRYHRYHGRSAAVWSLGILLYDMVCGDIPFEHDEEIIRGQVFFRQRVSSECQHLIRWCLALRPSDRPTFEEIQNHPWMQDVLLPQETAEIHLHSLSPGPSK
Details: at 1 µM
Entries and their residual activity values follow.
Provide the reading as a plain figure in %.

Examples with answers:
[[record]]
molecule = "Cc1nc2cc3nc(-c4cccs4)cnc3cc2n1C"
metric_name = "residual activity"
value_unit = "%"
value_reported = 100

[[record]]
molecule = "CN(C)c1ccc(/C=C2\\C(=O)Nc3ccccc32)cc1"
metric_name = "residual activity"
value_unit = "%"
value_reported = 77


query: Given the molecule "CO[C@H]1C[C@@H]2CC[C@@H](C)[C@@](O)(O2)C(=O)C(=O)N2CCCC[C@H]2C(=O)O[C@H]([C@H](C)C[C@@H]2CC[C@@H](O)[C@H](OC)C2)CC(=O)[C@H](C)/C=C(\C)[C@@H](O)[C@@H](OC)C(=O)[C@H](C)C[C@H](C)/C=C/C=C/C=C/1C" , what is its reported residual activity?
result: 105

query: Also check "COc1cc2ncc(-c3ccccc3)nc2cc1OC"
result: 81

query: Also check "CNc1cc2c(Nc3cccc(Br)c3)ncnc2cn1"
result: 64

query: Also check "O=C1NC(=O)/C(=C\c2ccc3nccnc3c2)S1"
result: 42

query: Also check "COc1ccc(S(=O)(=O)N(CCO)c2ccccc2CN(C)C/C=C/c2ccc(Cl)cc2)cc1"
result: 96

* * *

Biological target: Serine/threonine-protein kinase 24 (Homo sapiens) (UniProt Q9Y6E0)
Sequence (Q9Y6E0 whole entry, looked up): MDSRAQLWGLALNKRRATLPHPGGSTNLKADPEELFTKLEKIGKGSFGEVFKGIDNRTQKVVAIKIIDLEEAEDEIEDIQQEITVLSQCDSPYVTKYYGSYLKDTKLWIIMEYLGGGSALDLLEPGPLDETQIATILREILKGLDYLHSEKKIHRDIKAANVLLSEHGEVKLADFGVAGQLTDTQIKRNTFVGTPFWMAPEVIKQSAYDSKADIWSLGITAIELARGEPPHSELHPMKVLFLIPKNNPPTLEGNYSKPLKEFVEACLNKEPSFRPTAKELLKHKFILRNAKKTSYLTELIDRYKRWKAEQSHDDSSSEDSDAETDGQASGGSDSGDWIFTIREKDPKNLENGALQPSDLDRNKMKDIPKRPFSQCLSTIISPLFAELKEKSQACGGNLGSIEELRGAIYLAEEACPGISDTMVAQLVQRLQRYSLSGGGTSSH
Conditions: at 1 µM
Metric Name: residual activity (%)
Provide the reading as a plain figure in %.

Examples with answers:
[[record]]
molecule = "O=[N+]([O-])c1ccc(-c2nc(-c3ccc(F)cc3)c(-c3ccncc3)[nH]2)cc1"
value_unit = "%"
value_reported = 83

[[record]]
molecule = "NC(=O)c1ccc2[nH]c(-c3ccc(Oc4ccc(Cl)cc4)cc3)nc2c1"
value_unit = "%"
value_reported = 79


query: Given the molecule "O=c1cc(-c2cccc3c2Sc2ccccc2S3)oc(N2CCOCC2)c1" , what is its reported residual activity?
result: 98

query: Also check "CN(C)c1ccc(/C=C2\C(=O)Nc3ccccc32)cc1"
result: 66

query: Also check "Nc1nc(Nc2ccc(S(N)(=O)=O)cc2)nn1C(=S)Nc1c(F)cccc1F"
result: 0

query: Also check "C[C@@H](N)[C@H]1CC[C@H](C(=O)Nc2ccncc2)CC1"
result: 98

query: Also check "Cc1cccc(-c2[nH]c(C(C)(C)C)nc2-c2ccc3c(c2)OCO3)n1"
result: 79

query: Also check "CCN(CC)CCCCN1c2ccccc2Oc2ccc(Cl)cc21"
result: 85

query: Also check "O=C1NC(=O)c2c1c1c3ccccc3[nH]c1c1[nH]c3cc(Br)ccc3c21"
result: 92

query: Also check "CO[C@@H]1[C@H](N(C)C(=O)c2ccccc2)C[C@H]2O[C@]1(C)n1c3ccccc3c3c4c(c5c6ccccc6n2c5c31)C(=O)NC4"
result: 17

* * *

Target: Insulin receptor (Homo sapiens) (UniProt P06213)
Sequence (P06213 28-758 limits assumed): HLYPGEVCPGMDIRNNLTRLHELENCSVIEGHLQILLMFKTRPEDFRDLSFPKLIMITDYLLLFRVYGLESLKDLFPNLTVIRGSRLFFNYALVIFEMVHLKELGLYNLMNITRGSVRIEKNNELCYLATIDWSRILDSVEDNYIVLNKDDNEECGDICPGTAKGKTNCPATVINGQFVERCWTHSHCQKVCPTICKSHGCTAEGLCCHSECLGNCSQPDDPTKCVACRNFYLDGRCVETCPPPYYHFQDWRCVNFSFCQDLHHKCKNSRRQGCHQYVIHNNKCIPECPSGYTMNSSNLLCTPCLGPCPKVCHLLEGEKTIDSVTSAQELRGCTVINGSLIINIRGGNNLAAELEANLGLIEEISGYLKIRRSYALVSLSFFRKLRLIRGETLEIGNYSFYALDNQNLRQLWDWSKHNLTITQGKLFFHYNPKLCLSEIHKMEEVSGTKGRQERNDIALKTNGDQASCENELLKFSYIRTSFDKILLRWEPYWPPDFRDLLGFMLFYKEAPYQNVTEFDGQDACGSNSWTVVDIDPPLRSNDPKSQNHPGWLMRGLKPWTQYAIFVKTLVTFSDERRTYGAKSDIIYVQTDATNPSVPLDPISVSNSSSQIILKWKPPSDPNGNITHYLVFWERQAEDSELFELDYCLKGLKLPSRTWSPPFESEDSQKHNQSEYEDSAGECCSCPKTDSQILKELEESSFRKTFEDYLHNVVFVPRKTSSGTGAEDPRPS
Sequence (P06213 763-1382 limits assumed): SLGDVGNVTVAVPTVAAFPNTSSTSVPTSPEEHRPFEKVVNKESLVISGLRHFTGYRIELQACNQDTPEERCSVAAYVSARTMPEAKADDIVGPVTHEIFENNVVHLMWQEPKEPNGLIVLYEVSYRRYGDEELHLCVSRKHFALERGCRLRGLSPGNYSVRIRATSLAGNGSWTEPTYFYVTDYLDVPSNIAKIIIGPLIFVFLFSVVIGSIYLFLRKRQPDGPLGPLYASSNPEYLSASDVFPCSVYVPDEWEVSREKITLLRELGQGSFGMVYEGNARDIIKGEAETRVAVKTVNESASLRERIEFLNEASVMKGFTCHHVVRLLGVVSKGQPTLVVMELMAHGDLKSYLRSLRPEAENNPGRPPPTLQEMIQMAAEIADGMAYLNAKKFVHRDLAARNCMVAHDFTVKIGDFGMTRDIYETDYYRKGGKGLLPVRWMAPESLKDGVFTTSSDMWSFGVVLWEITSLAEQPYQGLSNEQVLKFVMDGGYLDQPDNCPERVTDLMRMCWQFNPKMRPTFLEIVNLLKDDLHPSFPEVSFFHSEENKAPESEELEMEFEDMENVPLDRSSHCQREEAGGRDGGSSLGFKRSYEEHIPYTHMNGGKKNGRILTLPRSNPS
Settings: at 10 µM
Metric Name: residual activity

Examples with answers:
[[record]]
molecule = "O=C1NC(=O)/C(=C\\c2ccc3nccnc3c2)S1"
metric_name = "residual activity"
value_reported = "94%"

[[record]]
molecule = "Cn1cnc2cc3c(Nc4cccc(Br)c4)ncnc3cc21"
metric_name = "residual activity"
value_reported = "103%"

[[record]]
molecule = "Cc1cc(Nc2nc(-c3ccccc3)nc3ccccc23)n[nH]1"
metric_name = "residual activity"
value_reported = "5%"


Please find the next compound below.
query: I'm curious: which residual activity was measured for "COc1cc2ncnc(Nc3ccc(NC(=O)c4ccccc4)cc3)c2cc1OC" tested on Insulin receptor (Homo sapiens) (UniProt P06213)?
result: 92%

* * *

Target: Insulin receptor (Homo sapiens) (UniProt P06213)
Settings: at 1 µM
Entries and their residual activity values follow.
Provide the reading as a plain figure in %.

[[record]]
compound = "O=C1NC(=O)/C(=C\\c2ccc3nccnc3c2)S1"
target_or_test_system = "Insulin receptor (Homo sapiens) (UniProt P06213)"
metric_name = "residual activity"
value_reported = 103


query: Given the compound "Cn1nc2c3c(cccc31)C(=O)c1ccccc1-2" , what is its reported residual activity?
result: 81

query: Also check "N#CC(C#N)=C(N)/C(C#N)=C/c1ccc(O)cc1"
result: 98

query: Also check "Ic1cccc(CSc2nnc(-c3ccncc3)o2)c1"
result: 95

query: Also check "N#Cc1cnc2cnc(NCc3cccnc3)cc2c1Nc1ccc(F)c(Cl)c1"
result: 72

query: Also check "CC(=O)O/N=C1\C(=C2\C(=O)Nc3cc(Br)ccc32)Nc2ccccc21"
result: 102

query: Also check "COc1ccc(OC)c2c(=S)c3ccccc3[nH]c12"
result: 101

query: Also check "CO[C@H]1[C@@H](OC)C[C@H](C)[C@@H](OC)C2=CC(=O)C=C(NC(=O)/C(C)=C/C=C/[C@H](OC)[C@@H](OC(N)=O)/C(C)=C/[C@@H]1C)C2=O"
result: 100

query: Also check "O=C(O)c1ccc2c3c1cccc3c(=O)n1c3ccccc3nc21"
result: 104

query: Also check "COc1ccc(C(=O)Nc2sc3c(c2C(N)=O)CCCC3)cc1OC"
result: 96

query: Also check "COc1ccc(S(=O)(=O)N(CCO)c2ccccc2CN(C)C/C=C/c2ccc(Cl)cc2)cc1"
result: 100

query: Also check "c1ccc2c(-c3ccncc3)c[nH]c2c1"
result: 97

query: Also check "Oc1n[nH]c2nnc(-c3c(-c4ccccc4)nn4ccccc34)cc12"
result: 89

query: Also check "COc1cccc(-c2cc(=O)c3ccccc3o2)c1N"
result: 96

query: Also check "CCC(=O)Nc1ccc2ncnc(Nc3cccc(Br)c3)c2c1"
result: 102

query: Also check "c1ccc(-c2n[nH]cc2-c2ccnc3ccccc23)nc1"
result: 99

query: Also check "Cc1cc(Nc2nc(-c3ccccc3)nc3ccccc23)n[nH]1"
result: 36

query: Also check "CN(C)CCCn1cc(C2=C(c3c[nH]c4ccccc34)C(=O)NC2=O)c2ccccc21"
result: 100

query: Also check "CO[C@@H]1[C@H](N(C)C(=O)c2ccccc2)C[C@H]2O[C@]1(C)n1c3ccccc3c3c4c(c5c6ccccc6n2c5c31)C(=O)NC4"
result: 80

query: Also check "CN(C)c1ccc(/C=C2\C(=O)Nc3ccccc32)cc1"
result: 93

query: Also check O=C1Nc2ccccc2/C1=C1/Nc2ccccc2/C1=N\OCCC(O)CO (configuration not stated)
result: 10

query: Also check "COc1cc2ncnc(Nc3ccc(NC(=O)c4ccccc4)cc3)c2cc1OC"
result: 105

* * *

Entries and their residual activity values follow.
Target: Proto-oncogene tyrosine-protein kinase Src (Homo sapiens)
Settings: at 10 µM
Provide the reading as a plain figure in %.

Examples with answers:
[[record]]
molecule = "O=C1Nc2cc(Br)ccc2/C1=C1/Nc2ccccc2/C1=N\\O"
target_or_test_system = "Proto-oncogene tyrosine-protein kinase Src (Homo sapiens)"
value_reported = 3

[[record]]
molecule = "COc1cc2ncnc(Nc3ccc(NC(=O)c4ccccc4)cc3)c2cc1OC"
target_or_test_system = "Proto-oncogene tyrosine-protein kinase Src (Homo sapiens)"
value_reported = 95

[[record]]
molecule = "Ic1cccc(CSc2nnc(-c3ccncc3)o2)c1"
target_or_test_system = "Proto-oncogene tyrosine-protein kinase Src (Homo sapiens)"
value_reported = 83

[[record]]
molecule = "COc1ccc(OC)c2c(=S)c3ccccc3[nH]c12"
target_or_test_system = "Proto-oncogene tyrosine-protein kinase Src (Homo sapiens)"
value_reported = 93

[[record]]
molecule = "Cc1ccc(S(=O)(=O)/C=C/C#N)cc1"
target_or_test_system = "Proto-oncogene tyrosine-protein kinase Src (Homo sapiens)"
value_reported = 76

[[record]]
molecule = "N#Cc1cnc2cnc(NCc3cccnc3)cc2c1Nc1ccc(F)c(Cl)c1"
target_or_test_system = "Proto-oncogene tyrosine-protein kinase Src (Homo sapiens)"
value_reported = 39

[[record]]
molecule = "COc1ccc(S(=O)(=O)N(CCO)c2ccccc2CN(C)C/C=C/c2ccc(Cl)cc2)cc1"
target_or_test_system = "Proto-oncogene tyrosine-protein kinase Src (Homo sapiens)"
value_reported = 90

[[record]]
molecule = "O=C1NC(=O)c2c1c1c3ccccc3[nH]c1c1[nH]c3cc(Br)ccc3c21"
target_or_test_system = "Proto-oncogene tyrosine-protein kinase Src (Homo sapiens)"
value_reported = 93

[[record]]
molecule = "O=C1c2ccccc2-[n+]2ccc3c([nH]c4ccccc43)c21"
target_or_test_system = "Proto-oncogene tyrosine-protein kinase Src (Homo sapiens)"
value_reported = 91

[[record]]
molecule = "O=C(O)c1ccc2c3c1cccc3c(=O)n1c3ccccc3nc21"
target_or_test_system = "Proto-oncogene tyrosine-protein kinase Src (Homo sapiens)"
value_reported = 95


Please find the next compound below.
query: Given the compound "O=C1NC(=O)/C(=C\c2ccc3nccnc3c2)S1" , what is its reported residual activity?
result: 103
